- Measured Target: Human HIF-PHD2 (Homo sapiens, UniProt Q9GZT9)
- Construct: FLAG-tagged full length PHD2 expressed in and purified from baculovirus-infected Sf9 cells; FLAG; made in house; host or cells: baculovirus-infected Sf9 cells
- Sequence (Q9GZT9 whole entry): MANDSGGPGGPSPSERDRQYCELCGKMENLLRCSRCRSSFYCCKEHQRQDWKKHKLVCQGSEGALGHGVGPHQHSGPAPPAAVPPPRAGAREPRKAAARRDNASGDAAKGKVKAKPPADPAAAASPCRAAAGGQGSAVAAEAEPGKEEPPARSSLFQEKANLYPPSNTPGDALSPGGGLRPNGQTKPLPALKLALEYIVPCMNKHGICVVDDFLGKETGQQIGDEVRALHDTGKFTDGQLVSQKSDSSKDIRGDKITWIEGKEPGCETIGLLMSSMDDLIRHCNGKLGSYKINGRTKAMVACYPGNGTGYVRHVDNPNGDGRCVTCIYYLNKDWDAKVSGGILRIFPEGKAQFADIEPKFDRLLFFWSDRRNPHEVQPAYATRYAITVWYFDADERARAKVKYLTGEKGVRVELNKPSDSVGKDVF
- Run Description: Inhibition of the hydroxylation of a HIF peptide by PHD2 (time resolved fluorescence, 384-well)
- Format: biochemical
- Experimental Conditions: FLAG-tagged full length PHD2; 0.2 μM 2-oxoglutarate, 0.5 μM HIF-1α peptide; 45 minutes at room temperature; read-out: MS m/z (M + 1)+ and human HIF-PHD2 IC50
- Experimental: To each well of a 384-well plate, 1 μL of test compounds in DMSO (final concentration ranging from 0.3 nM to 10 uM) were added into 20 μl of assay buffer (50 mM Tris pH 7.4/0.01% Tween-20/0.1 mg/ml bovine serum albumin/10 μM ferrous sulfate/1 mM sodium ascorbate/20 μg/ml catalase) containing 0.15 μg/ml FLAG-tagged full length PHD2 expressed in and purified from baculovirus-infected Sf9 cells. […]
satisfied if IC50 is below 0.008 µM. not satisfied if not; exact matches included in not satisfied.

{"columns": ["Molecule", "Qualitative Label"],
 "data": [
  ["O=C(O)CNC(=O)c1c(O)c2cccc3c2n(c1=O)C(c1ccc(-c2cccc(Cl)c2)cc1)CO3 (stereo not shown)", "not satisfied"],
  ["N#Cc1ccc(-c2ccc(C3COc4cccc5c(O)c(C(=O)NCC(=O)O)c(=O)n3c45)cc2)cc1 (stereo not shown)", "satisfied"],
  ["O=C(O)CNC(=O)c1c(O)c2cc(Cl)cc3c2n(c1=O)CC(c1ccc(C(F)(F)F)cc1)O3 (single isomer, unassigned)", "not satisfied"],
  ["O=C(O)CNC(=O)c1c(O)c2c(Br)ccc3c2n(c1=O)C(c1cncs1)CO3 (stereo not shown)", "satisfied"],
  ["O=C(O)CNC(=O)c1c(O)c2c(OC(F)(F)F)ccc3c2n(c1=O)CC(c1ccc(C(F)(F)F)cc1)O3 (single isomer, unassigned)", "not satisfied"],
  ["O=C(O)CNC(=O)c1c(O)c2c(Br)ccc3c2n(c1=O)C(c1ccc(C(F)(F)F)cc1)CO3 (stereo not shown)", "not satisfied"]
]}
